molecular target: human PD-L1 (Homo sapiens (Human), UniProt Q9NZQ7); experiment: T cell activation luciferase reporter cell culture system (T Cell Activation Assay); assay type: cell-based; details: luciferase reporter assay; PD-L1 aAPC/CHO-K1 cells with PD-1 effector Jurkat T cells
Sequence (Q9NZQ7 19-290): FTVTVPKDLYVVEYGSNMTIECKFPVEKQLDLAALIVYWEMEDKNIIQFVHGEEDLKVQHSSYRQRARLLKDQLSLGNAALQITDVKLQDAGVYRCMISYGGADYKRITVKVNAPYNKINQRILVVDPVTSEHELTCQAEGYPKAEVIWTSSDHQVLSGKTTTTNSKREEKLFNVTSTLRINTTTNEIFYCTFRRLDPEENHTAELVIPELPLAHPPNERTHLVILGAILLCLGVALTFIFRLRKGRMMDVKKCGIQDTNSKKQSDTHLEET
experimentalEndpoint: pEC50
Keep it numeric: pEC50 is minus log10 of the concentration in mol/L.

Entry COc1cc(-c2nccc(-c3cccc(-c4ccc(CN[C@H]5CC[C@@H](O)CC5)c(OC)n4)c3Cl)c2Cl)ccc1CN[C@H]1CC[C@@H](O)CC1 ; pEC50 = 7.33

For this compound ( CNCc1ccc(-c2nccc(-c3cccc(-c4ccc(CNC)c(OC)n4)c3Cl)c2Cl)cc1OC ), measured pEC50 is 7.79

// pEC50 value for COc1cc(-c2nccc(-c3cccc(-c4ccc(CN5CC6(CNC(=O)C6)C5)c(OC)n4)c3Cl)c2Cl)ccc1CN[C@H]1C[C@](C)(O)C1 : 7.54

Item: COc1nc(-c2ccnc(-c3cccc4c3CC[C@@H]4Oc3nc(OC)c(CNC[C@H](C)O)cc3C(F)(F)F)c2Cl)ccc1CNC[C@@H]1CCC(=O)N1 | pEC50: 8.04

Entry COc1cc(-c2nccc(-c3cccc(-c4ccc(CNC5CCN(C(C)=O)CC5)c(OC)n4)c3Cl)c2Cl)ccc1CN(C)C1CCOCC1 — recorded pEC50 = 7.60

Sure, the documented pEC50 for COc1nc(-c2cccc(-c3ccnc(-c4ccc5c(CNCC(C)C)cn(C)c5c4)c3Cl)c2Cl)ccc1CNC[C@@H]1CCC(=O)N1 is 6.43

// recorded pEC50 for COc1cc(-c2nccc(-c3cccc(-c4ccc(CN5CC6(CNC(=O)C6)C5)c(OC)n4)c3Cl)c2Cl)ccc1CNC1CCOCC1 : 7.64

The reported value for COc1cc(-c2nccc(-c3cccc(-c4ccc(CNC[C@@H]5CCCO5)c(OC)n4)c3Cl)c2Cl)cc2c1CN(C[C@H](C)O)CC2 in terms of pEC50 is 6.57

Data point: CCNCc1cn(C)c2cc(-c3nccc(-c4cccc(-c5ccc(CNC[C@@H]6CCC(=O)N6)c(OC)n5)c4Cl)c3Cl)ccc12 ; pEC50 = 6.58

* * *

target: UniProt Q9NZQ7; assay: T cell activation luciferase reporter cell culture system (T Cell Activation Assay); format: cell-based; conditions: luciferase reporter assay; PD-L1 aAPC/CHO-K1 cells with PD-1 effector Jurkat T cells
experimentalEndpoint: EC50
Express the reported value numerically, then name its unit.

CNCc1ccc(-c2cccc(-c3ccnc(-c4ccc(CN5CC6(CC(C(=O)OC(C)C)C6)C5)c(OC)c4)c3Cl)c2Cl)nc1OC has a reported EC50 of 153 nM

Reported EC50 for COc1cc(-c2nccc(-c3cccc(-c4cc5c(c(OC)c4)CN(C[C@@H]4CCC(=O)N4)CC5)c3Cl)c2Cl)ccc1CNC[C@@H]1CCC(=O)N1 was 75.6 nM

For this compound ( COc1cc(-c2nccc(-c3cccc(-c4ccc(CN(C)C5CCOCC5)c(OC)n4)c3Cl)c2Cl)ccc1CNC1CCOCC1 ), measured EC50 is 97.1 nM

Consider COc1cc(-c2nccc(-c3cccc(-c4ccc5c(OC)c(CNCCO)cc(Cl)c5n4)c3Cl)c2Cl)ccc1CNC[C@@H]1CCC(=O)N1 . Its measured EC50 is 128 nM

* * *

target: PD-L1 His protein / PD-1 Fc protein (Homo sapiens (Human)); assay: HTRF Assay (PD-1/PD-L1 interaction); format: binding; conditions: PD-L1 His 6 nM, PD-1 Fc 6 nM
Sequence (Q9NZQ7 19-238): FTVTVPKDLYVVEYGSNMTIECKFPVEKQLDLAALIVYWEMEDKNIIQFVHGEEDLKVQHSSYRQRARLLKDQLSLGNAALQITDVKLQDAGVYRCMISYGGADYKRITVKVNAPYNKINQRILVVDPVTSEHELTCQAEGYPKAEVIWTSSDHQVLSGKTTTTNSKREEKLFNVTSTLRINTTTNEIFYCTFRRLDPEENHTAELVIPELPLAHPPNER
experimentalEndpoint: pIC50
pIC50 here: minus log base 10 of the concentration, concentration in moles per litre.

Hey, PD-L1 His protein / PD-1 Fc protein (Homo sapiens (Human)) data for COc1cc(-c2ncnc(-c3cccc(NC(=O)c4cn(C)c(=O)n(C)c4=O)c3Cl)c2Cl)ccc1CNC[C@@H]1CCC(=O)N1 [Compound 708] : pIC50 came out at 9.54

Item CNCc1ccc(-c2cccc(-c3ccnc(-c4cc(F)c(CNC)c(OC)c4)c3Cl)c2Cl)nc1OC [Example 286] was tested on PD-L1 His protein / PD-1 Fc protein (Homo sapiens (Human)); the reported pIC50 is 8.29

Simply: COc1cc(-c2nccc(-c3cccc(-c4ccc(CN5CC6(CNC(=O)C6)C5)c(OC)n4)c3Cl)c2Cl)cnc1CNC[C@@H]1CCC(=O)N1 [Compound 550] , PD-L1 His protein / PD-1 Fc protein (Homo sapiens (Human)), pIC50 = 9.55

Record for COc1cc(-c2nccc(-c3cccc(-c4ccc5c(CN(C)C6CCOCC6)cn(C)c5n4)c3Cl)c2Cl)ccc1CNC1CCOCC1 [Compound 635] under target or system PD-L1 His protein / PD-1 Fc protein (Homo sapiens (Human)): pIC50 reported as 9.72

The compound CNCc1ccc(-c2cccc(-c3ccnc(-c4ccc(CN5CC[C@H](C(=O)O)C5)c(OC)c4)c3Cl)c2Cl)nc1OC [Compound 226] , when measured on PD-L1 His protein / PD-1 Fc protein (Homo sapiens (Human)), yielded pIC50 of 9.57

Tested on PD-L1 His protein / PD-1 Fc protein (Homo sapiens (Human)): COc1cc(-c2nccc(-c3cccc(-c4ccc(CNC[C@@H]5CCC(=O)N5)c(OC)n4)c3Cl)c2Cl)cnc1CNC[C@@H]1CCC(=O)N1 [Compound 23] . Observed pIC50: 10.00

Response field pIC50 (PD-L1 His protein / PD-1 Fc protein (Homo sapiens (Human))) for item COc1cc(-c2nccc(-c3cccc(-c4ccc(CN5CC6(CCOCC6)C5)c(OC)n4)c3Cl)c2Cl)ccc1CN1CC2(CCOCC2)C1 [Example 470] : 7.71

Response field pIC50 (PD-L1 His protein / PD-1 Fc protein (Homo sapiens (Human))) for item COc1cc(-c2nccc(-c3cccc(-c4ccc(CN5CCC(NC(C)=O)CC5)c(OC)n4)c3Cl)c2Cl)ccc1CN1CC2(CNC(=O)C2)C1 [Example 355] : 8.90

COc1cc(-c2nccc(-c3cccc(-c4ccc(CN5CC6(C5)CN(C(C)=O)C6)c(OC)n4)c3Cl)c2Cl)ccc1CN1CC2(C1)CN(C(C)=O)C2 [Compound 90] on PD-L1 His protein / PD-1 Fc protein (Homo sapiens (Human)) gives pIC50 = 9.15

Given the compound COc1cc(-c2nccc(-c3cccc(-c4ccc(CNC5CCN(C(=O)C6CC6)CC5)c(OC)n4)c3Cl)c2Cl)cc(F)c1CNC1CCN(C(=O)C2CC2)CC1 [Example 316] and test system PD-L1 His protein / PD-1 Fc protein (Homo sapiens (Human)), the measured pIC50 is 8.46

Form field pIC50 for item Cn1cc(CNC[C@@H]2CCC(=O)N2)c2ccc(-c3nccc(-c4ccnc(-c5ccc6c(CNC[C@@H]7CCC(=O)N7)cn(C)c6c5)c4Cl)c3Cl)cc21 [Compound 15] on PD-L1 His protein / PD-1 Fc protein (Homo sapiens (Human)): 6.97

Record COC(=O)C1CN(Cc2nn3cc(-c4nccc(-c5cccc(-c6ccc(CNC[C@@H]7CCC(=O)N7)c(OC)n6)c5Cl)c4Cl)cc3c(=O)n2C)C1 [Compound 182] ; system PD-L1 His protein / PD-1 Fc protein (Homo sapiens (Human)); pIC50 = 8.61

Considering COc1nc(-c2cccc(-c3nccc(-c4ccc(CN5CC6(CCN(C(C)=O)C6)C5)c(OC)n4)c3Cl)c2Cl)ccc1CN1CC2(CCN(C(C)=O)C2)C1 [Example 760] , its pIC50 with PD-L1 His protein / PD-1 Fc protein (Homo sapiens (Human)) was recorded as 9.49

# value of pIC50, PD-L1 His protein / PD-1 Fc protein (Homo sapiens (Human)), item COc1nc(-c2cccc(-c3ccnc(-c4ccc5c(CNC6CCN(C(C)=O)CC6)cn(C)c5c4)c3Cl)c2Cl)ccc1CNC[C@@H]1CCC(=O)N1 [Compound 28] = 8.92

Tested system PD-L1 His protein / PD-1 Fc protein (Homo sapiens (Human)); pIC50 recorded for COc1cc(-c2nccc(-c3cccc(-c4ccc(CNC5CCS(=O)(=O)CC5)c(OC)n4)c3Cl)c2Cl)ccc1CNC1CCS(=O)(=O)CC1 [Example 299] was 9.10

# pIC50 measured on PD-L1 His protein / PD-1 Fc protein (Homo sapiens (Human)) for item COc1cc(-c2nccc(-c3cccc(-c4ccc(CNC[C@@H]5CCC(=O)N5)c(OC)n4)c3Cl)c2Cl)cc(F)c1CNC1CC2(C1)CN(C(C)=O)C2 [Compound 210] = 8.67

Lab note: compound COc1cc(-c2ncnc(-c3cccc(-c4ccc(CN5CC6(C5)CN(C(C)=O)C6)c(OC)n4)c3Cl)c2C)ccc1CN1CC2(C1)CN(C(C)=O)C2 [Example 538] tested on PD-L1 His protein / PD-1 Fc protein (Homo sapiens (Human)); recorded pIC50 was 8.59
